Reference for the values: paper PMC8509831

assay: WST cell viability assay
Format: cell-based, human
particulars: human, HeLa cells, HeLa, 1 μg/mL, 48 h

>  <compound>
O=c1c(O[C@@H]2O[C@H](CO)[C@@H](O)[C@H](O)[C@H]2O)c(-c2ccc(O)c(O)c2)oc2cc(O)cc(O)c12 [Quercetin-3-glucoside, quercetin 3-β-D-glucoside]

>  <unit-spec>
%

>  <viability at 48 h, 1 μg/mL>
103

$$$$
